So I've got a bunch of variants here, and I need their protein stability index values.
B1: WSB1 (parent)
chain: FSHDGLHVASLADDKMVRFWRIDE

Variants of: B1
procedureText: protein stability index of a GFP-peptide fusion (GPS, HEK-293T) (PSI 1-6); higher = more stable;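 note: lentivirally expressed fusions sorted by FACS into six bins by GFP to DsRed ratio, PSI derived from sequencing read proportions per bin multiplied by bin number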
conditions: c terminus: a fixed tail appended
Numbers only.

Recorded protein stability index, per entry:
D13M : 1.22
L6N : 3.26
F19Q : 2.03
L6P : 1.63
H7M : 1.03
W20P : 2.6
L11H : 2.98
H3C : 3.26

Dear colleague, could you please provide protein stability index for the variants listed below?
1. E24D
2. K15G
3. D23I
4. F19Y
5. L11Y
6. K15N

*A*
1: 1.56; 2: 1.69; 3: 3.06; 4: 2.33; 5: 1.3; 6: 1.65

Dear colleague, could you please provide protein stability index for the variants listed below?
1. V8S
2. R18Y
3. H7P
4. S2F
5. A12I
6. G5Q

*A*
2.41
1.89
2.09
1.97
1.93
2.15

Dear colleague, could you please provide protein stability index for the variants listed below?
1. V8Q
2. F1P
3. E24Y

*A*
1. 3.68
2. 3.52
3. 1.97
